# System: HCV NS3 protease domain (Hepatitis C virus genotype 1b)
# Construct: The first 181 amino acids of NS3 (residues 1027-1207 of the viral polyprotein); hexa-histidine (C); made in house; host or cells: E. coli BL21/DE3 pLysS
# Assay Summary: biochemical
# Conditions: Enzyme Assay 1 (HCV NS3 Protease Domain Peptide Cleavage Assay) activity, apparent Ki class
Quick reference for Ki among some compounds

These recorded examples may help you get a feel for the data.
test_smiles=CCC[C@H](NC(=O)[C@@H]1C[C@]2(CC(c3cccc(Cl)c3)=NO2)CN1C(=O)[C@@H](NC(=O)Cc1cccc(OC(F)(F)F)c1)C(C)(C)C)C(=O)C(=O)NC1CC1 result="100 to 500 nM"
test_smiles=CCC[C@H](NC(=O)[C@@H]1C[C@]2(CC(c3cccc(Cl)c3)=NO2)CN1C(=O)[C@@H](NC(=O)OC(C)C)C(C)(C)C)C(=O)C(=O)NC1CC1 result="100 to 500 nM"

Please find the next compound below.
Kindly state the measured Ki obtained for CCC[C@H](NC(=O)[C@@H]1C[C@]2(CC(c3ccc(F)cc3)=NO2)CN1C(=O)[C@@H](NC(=O)[C@@H](NC(=O)c1cnccn1)C(C)(C)C)C(C)(C)C)C(=O)C(=O)NC1CC1 with HCV NS3 protease domain (Hepatitis C virus genotype 1b).
< 100 nM

----------
# System: full-length hepatitis C viral protein NS3•4A (Hepatitis C virus genotype 1a)
# Construct: hexa-histidine (N); made in house; host or cells: Sf9 insect cells (baculovirus, pVL1392)
# Assay Summary: biochemical
# Set-up: species or system HCV sub-type strain 1a
# Conditions: Enzyme Assay 2 (HCV NS3 Peptide Cleavage Assay) activity, apparent Ki class
Metric: Ki

Answered cases to consult:
test_smiles=CCC[C@H](NC(=O)[C@@H]1C[C@]2(CC(c3cccc(Cl)c3)=NO2)CN1C(=O)[C@@H](NC(=O)CC1(C)CCOCC1)C(C)(C)C)C(=O)C(=O)NC1CC1 metric=Ki result="< 100 nM"
test_smiles=CCC[C@H](NC(=O)[C@@H]1C[C@]2(CC(c3cc(C)c(OC)c(C)c3)=NO2)CN1C(=O)[C@@H](NC(=O)CC1CCCCC1)C(C)(C)C)C(=O)C(N)=O metric=Ki result="< 100 nM"

What does the data say about its Ki? Entry: CCC[C@H](NC(=O)[C@@H]1C[C@]2(CC(c3cccc(Cl)c3)=NO2)CN1C(=O)[C@@H](NC(=O)[C@@H](C)C1CCCCC1)C(C)(C)C)C(=O)C(=O)NC1CC1
100 to 500 nM

----------
# System: HCV NS3 protease domain (Hepatitis C virus genotype 1b, UniProt Q9WMX2)
# Construct: The first 181 amino acids of NS3 (residues 1027-1207 of the viral polyprotein); hexa-histidine (C); made in house; host or cells: E. coli BL21/DE3 pLysS
# Assay Summary: biochemical
# Conditions: Enzyme Assay 1 (HCV NS3 Protease Domain Peptide Cleavage Assay) activity, apparent Ki class
Metric: Ki

Known results for compounds:
compound=CCC[C@H](NC(=O)[C@@H]1C[C@]2(CC(c3cccc(Cl)c3)=NO2)CN1C(=O)[C@@H](NC(=O)Cn1ccc2ncccc21)C(C)(C)C)C(=O)C(=O)NC1CC1 system="HCV NS3 protease domain (Hepatitis C virus genotype 1b, UniProt Q9WMX2)" metric=Ki result="> 500 nM"
compound="CCC[C@H](NC(=O)[C@@H]1CC2(CC(c3cccc(Cl)c3)=NO2)CN1C(=O)[C@H](CCSCC)NC(C)=O)C(=O)C(=O)NC1CC1 (stereo partly drawn)" system="HCV NS3 protease domain (Hepatitis C virus genotype 1b, UniProt Q9WMX2)" metric=Ki result="> 500 nM"
compound=CCC[C@H](NC(=O)[C@@H]1C[C@]2(CC(c3cccc(Cl)c3)=NO2)CN1C(=O)[C@@H](NC(=O)OCc1cc(F)cc(F)c1)C(C)(C)C)C(=O)C(=O)NC1CC1 system="HCV NS3 protease domain (Hepatitis C virus genotype 1b, UniProt Q9WMX2)" metric=Ki result="100 to 500 nM"
compound=CCC[C@H](NC(=O)[C@@H]1C[C@]2(CC(c3cccc(Cl)c3)=NO2)CN1C(=O)[C@@H](NC(=O)N[C@H](COC)C(C)(C)C)C(C)(C)C)C(=O)C(=O)NC1CC1 system="HCV NS3 protease domain (Hepatitis C virus genotype 1b, UniProt Q9WMX2)" metric=Ki result="< 100 nM"

What value of Ki has been recorded for this entry: CCC[C@H](NC(=O)[C@@H]1C[C@]2(CC(c3cccc(Cl)c3)=NO2)CN1C(=O)[C@@H](NC(=O)C1CCC(=O)N1)C(C)C)C(=O)C(=O)NC1CC1 (stereo partly drawn)
> 500 nM

What value of Ki has been reported for the following compound? CC(C)(C)[C@H](NC(=O)CC1CCCCC1)C(=O)N1C[C@@]2(CC(c3cncc(Cl)c3)=NO2)C[C@H]1C(=O)NC(CC1CCC1)C(=O)C(=O)NC1CC1 (stereo partly drawn)
100 to 500 nM

Which Ki is reported for this compound? CC(C)(C)[C@H](NC(=O)CC1CC2CCC1C2)C(=O)N1C[C@@]2(CC(c3cccc(Cl)c3)=NO2)C[C@H]1C(=O)N[C@@H](CC1CC1)C(=O)C(N)=O (stereo partly drawn)
< 100 nM

So what does the record say about Ki for CCC[C@H](NC(=O)[C@@H]1C[C@]2(CC(c3cccc(Cl)c3)=NO2)CN1C(=O)[C@@H](NC(=O)CC1CCCCC1)C(C)(C)C)C(=O)C(=O)NC(CC)CC ?
100 to 500 nM

Item under review: CCC[C@H](NC(=O)[C@@H]1C[C@]2(CC(c3csc(Cl)c3)=NO2)CN1C(=O)[C@@H](NC(=O)CC1CCCCC1)C(C)(C)C)C(=O)C(=O)NC1CC1 . Reported Ki?
100 to 500 nM

Please look up its Ki: CCC[C@H](NC(=O)[C@@H]1C[C@]2(CC(c3cccc(Cl)c3)=NO2)CN1C(=O)[C@@H](NC(=O)OCCc1ccccc1)C(C)(C)C)C(=O)C(=O)NC1CC1
> 500 nM

Looking for the measured Ki of CCC[C@H](NC(=O)[C@@H]1C[C@]2(CC(c3cccc(Cl)c3)=NO2)CN1C(=O)[C@@H](CC(=O)NCc1ccccc1)C(C)C)C(=O)C(=O)NC1CC1 , can you help?
> 500 nM

Item C=C[C@@H]1C[C@]1(NC(=O)[C@@H]1C[C@]2(CC(c3cccc(Cl)c3)=NO2)CN1C(=O)[C@@H](NC(=O)NC(C)(C)C)C(C)(C)C)C(=O)O has what recorded Ki?
> 500 nM

Entry CCC[C@H](NC(=O)[C@@H]1C[C@]2(CC(c3cc(Cl)c4c(c3)CCCN4C)=NO2)CN1C(=O)[C@@H](NC(=O)CC1CCCCC1)C(C)(C)C)C(=O)C(=O)NC1CC1 : reported Ki = ?
100 to 500 nM

# Ki lookup, item CCC[C@H](NC(=O)[C@@H]1C[C@]2(CC(c3ccccc3)=NO2)CN1C(=O)CC1CCN(Cc2c(Cl)cccc2Cl)CC1)C(=O)C(=O)NC1CC1
> 500 nM

What does the data say about its Ki? Entry: CCC[C@H](NC(=O)[C@@H]1C[C@]2(CC(C(=O)c3ccccc3)=NO2)CN1C(=O)[C@@H](NC(=O)NC(C)(C)C)C(C)(C)C)C(=O)C(=O)NC1CC1
100 to 500 nM

Query (compound): CCC[C@H](NC(=O)[C@@H]1C[C@]2(CC(c3cccc(Cl)c3)=NO2)CN1C(=O)[C@@H](NS(=O)(=O)c1ccc(OC)cc1)C(C)C)C(=O)C(=O)NC1CC1 ; field requested: Ki
> 500 nM

State the recorded Ki for this entry: CCC[C@H](NC(=O)[C@@H]1C[C@]2(CC(c3cccc(-c4ccccc4)c3)=NO2)CN1C(=O)[C@@H](NC(=O)O[C@H]1CCOC1)C(C)(C)C)C(=O)C(=O)NC1CC1
100 to 500 nM

Look at this compound and give its reported Ki. CCC[C@H](NC(=O)[C@@H]1C[C@]2(CC(c3cccc(Cl)c3)=NO2)CN1C(=O)[C@@H](NC(=O)CC1CCCCC1)C(C)(C)C)C(=O)C(=O)NC(c1ccccc1)c1ccccn1 (stereo partly drawn)
> 500 nM

Returns the measured Ki for the input compound. Input: CCC[C@H](NC(=O)[C@@H]1C[C@]2(CC(c3cccc(Cl)c3)=NO2)CN1C(=O)[C@@H](NS(=O)(=O)c1ccc(OC)cc1)C(C)CC)C(=O)C(=O)NC1CC1 (stereo partly drawn)
> 500 nM

Returns the measured Ki for the input compound. Input: CCC[C@H](NC(=O)[C@@H]1C[C@]2(CC(c3ccc(Cl)cc3)=NO2)CN1C(=O)[C@@H](NC(=O)CC1CCCCC1)C(C)(C)C)C(=O)C(=O)NC1CC1
100 to 500 nM

Fill in the blank: the reported Ki of CCC[C@H](NC(=O)[C@@H]1C[C@]2(CC(c3cccc(Cl)c3)=NO2)CN1C(=O)[C@@H](NC(=O)CC1CCCCC1)C(C)(C)C)C(=O)C(=O)NCCC(=O)Nc1cc(OC)c2ccccc2c1 is ____.
100 to 500 nM
